These entries and their values trace back to the kinase profiling compilation of Christmann-Franck et al. (2016).

For each entry below, report its residual activity value.
- TESTED_TARGET: CSNK2A1 (human) (UniProt P68400)
- Sequence (P68400 whole entry, looked up): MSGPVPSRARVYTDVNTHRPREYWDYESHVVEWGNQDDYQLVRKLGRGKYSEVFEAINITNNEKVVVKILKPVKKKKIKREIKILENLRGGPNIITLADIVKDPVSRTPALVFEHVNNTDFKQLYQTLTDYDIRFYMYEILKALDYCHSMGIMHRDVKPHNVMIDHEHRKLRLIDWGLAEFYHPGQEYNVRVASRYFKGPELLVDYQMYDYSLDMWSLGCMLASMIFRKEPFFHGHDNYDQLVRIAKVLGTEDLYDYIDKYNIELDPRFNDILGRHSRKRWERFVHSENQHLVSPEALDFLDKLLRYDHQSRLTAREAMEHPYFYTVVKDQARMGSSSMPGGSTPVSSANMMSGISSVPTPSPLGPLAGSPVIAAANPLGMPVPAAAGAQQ
- TEST_SUMMARY: radiometric filter-binding kinase assay
- ASSAY_CONDITIONS: compound 10.0 µM
One number for each entry, in %.

Here is how some compounds turned out for residual activity.
[
  {
    "COMPOUND": "CCNc1nc(Nc2cc(F)c(C(=O)N3CCOCC3)cc2OC)ncc1C(F)(F)F",
    "residual activity (%)": 82
  },
  {
    "COMPOUND": "C=CC(=O)N1CCC[C@@H](n2nc(-c3ccc(Oc4ccccc4)cc3)c3c(N)ncnc32)C1",
    "residual activity (%)": 111
  },
  {
    "COMPOUND": "NC(=O)c1c(NC(=O)C2CC2)sc2c1CCCC2",
    "residual activity (%)": 106
  },
  {
    "COMPOUND": "O=C(O)c1ccc(-c2c[nH]c3ncc(-c4ccccc4)cc23)cc1C1CCCC1",
    "residual activity (%)": 46
  },
  {
    "COMPOUND": "O=C(NOCC(O)CO)c1ccc(F)c(F)c1Nc1ccc(I)cc1Cl (stereo not given)",
    "residual activity (%)": 98
  },
  {
    "COMPOUND": "O=C(NOC[C@H](O)CO)c1ccc(F)c(F)c1Nc1ccc(I)cc1Cl",
    "residual activity (%)": 118
  }
]

For every item in the list below, what is its measured residual activity?
1. NS(=O)(=O)OC[C@@H]1C[C@@H](n2ccc3c(N[C@H]4CCc5ccccc54)ncnc32)C[C@@H]1O
2. O=C(N[C@@H](COc1ccc2[nH]c(=O)[nH]c2c1)c1ccccc1)c1cccn(Cc2ccc(F)c(F)c2)c1=O
3. NC(=O)c1cc2c(-c3cccc(-c4ccccc4)c3)cnc(N)c2s1

[88, 107, 100]

The reported CSNK2A1 (human) (UniProt P68400) residual activity of `Oc1ccc2ccccc2c1SSc1c(O)ccc2ccccc12` is 127
